The entries below come with measured combination Emax values attached.
Tested on: CPC-N (Small Cell Lung Carcinoma)
Test: combination Emax (second highest fraction inhibited in the dose matrix, 72 h); higher = more inhibition; extreme values may be limits of the assay

Worked examples follow.
compound	system under test	combination Emax
Cc1cc2ncnn2cc1Nc1ncc2c(n1)n(C1CCOCC1)c(=O)n2C [AZD7648] + COc1cc([C@@H]2c3cc4c(cc3[C@@H](O[C@@H]3O[C@@H]5CO[C@@H](C)O[C@H]5[C@H](O)[C@H]3O)[C@H]3COC(=O)[C@H]23)OCO4)cc(OC)c1O [Etoposide] (first compound max 10 µM, 7x7, partner max 10 µM)	CPC-N (Small Cell Lung Carcinoma)	0.906
COc1cccc(OCCCN)c1-c1cc(Nc2cnc(C#N)cn2)n[nH]1 [Prexasertib] + CCc1c2c(nc3ccc(O)cc13)-c1cc3c(c(=O)n1C2)COC(=O)[C@]3(O)CC [SN-38] (first compound max 1 µM, 7x7, partner max 0.3 µM)	CPC-N (Small Cell Lung Carcinoma)	1

Now look at this one.
Enquiry: Reported combination Emax, compound Cc1nc(-c2cn3c(n2)-c2ccc(-c4cnn(C(C)(C)C(N)=O)c4)cc2OCC3)n(C(C)C)n1 [Taselisib] + O=C(Nc1ccc2[nH]nc(-c3ccncc3)c2c1)[C@@H]1CCN(CC(=O)N2CCN(c3ccc(-c4ncccn4)cc3)CC2)C1 [SCH772984] (first compound max 10 µM, 7x7, partner max 5 µM) : ____
Return: 0.484
